# Lookup of reported growth keyed by entry
# System: KM12 colon
# PROTOCOL TEXT: NCI-60 one-dose screen, 48 h (100 = growth as untreated, 0 = no growth, -100 = all killed)
# MEASUREMENT CONDITIONS: 10 µM unless noted
About 83,000 compounds went through this panel and 20% of them were active in at least one assay; those are over-represented in the sample as a whole.
ASSAY READOUT: growth (%)

{"MOLECULE": "CC(C)C(C)(C)c1ccc(O)cc1", "ASSAY READOUT": "growth", "RESULT": 107}
{"MOLECULE": "OCCN1CCCCCCC1", "ASSAY READOUT": "growth", "RESULT": 110}
{"MOLECULE": "Cc1ccc(S(=O)(=O)c2ccccc2)cc1", "ASSAY READOUT": "growth", "RESULT": 25.5}
{"MOLECULE": "COc1ccc(C(=O)CC(c2ccccc2)C(C#N)c2ccccc2)cc1 (stereo not given)", "ASSAY READOUT": "growth", "RESULT": 79.9}
{"MOLECULE": "Cl", "ASSAY READOUT": "growth", "RESULT": 112}
{"MOLECULE": "CC(=O)OC(C)C(=O)NCC(C)O (stereo not given)", "ASSAY READOUT": "growth", "RESULT": 102}
{"MOLECULE": "CCCCOC(=O)/C=C\\C(=O)NC(N)=O", "ASSAY READOUT": "growth", "RESULT": 106}
{"MOLECULE": "c1ccc(CNCCNCc2ccccc2)cc1", "ASSAY READOUT": "growth", "RESULT": 120}
{"MOLECULE": "OCC1OC(O)C(O)C(O)C1O (stereo not given)", "ASSAY READOUT": "growth", "RESULT": 128}
{"MOLECULE": "CCc1cc(C)cc(O)c1", "ASSAY READOUT": "growth", "RESULT": 114}
{"MOLECULE": "Cn1cnc([N+](=O)[O-])c1Sc1ncn[nH]1", "ASSAY READOUT": "growth", "RESULT": 107}
{"MOLECULE": "ClCCOCCOc1ccc(C2CCCCC2)cc1", "ASSAY READOUT": "growth", "RESULT": 110}
{"MOLECULE": "CCCCNc1ccc(Nc2ccccc2)cc1", "ASSAY READOUT": "growth", "RESULT": 66}
{"MOLECULE": "O=[N+]([O-])c1cccc(SSc2cccc([N+](=O)[O-])c2)c1", "ASSAY READOUT": "growth", "RESULT": 107}
{"MOLECULE": "Nc1ncnc2c1ncn2C1OC(COP(=O)(O)O)C(O)C1O (stereo not given)", "ASSAY READOUT": "growth", "RESULT": 111}
{"MOLECULE": "Brc1ccc(SSc2ccc(Br)cc2)cc1", "ASSAY READOUT": "growth", "RESULT": 57.4}
{"MOLECULE": "CCN(CCNS(C)(=O)=O)c1ccc(N)c(C)c1", "ASSAY READOUT": "growth", "RESULT": 103}
{"MOLECULE": "C#CCOC(=O)Nc1ccccc1", "ASSAY READOUT": "growth", "RESULT": 110}
{"MOLECULE": "CC1CCC(C(C)C)C(NNC(N)=O)C1 (stereo not given)", "ASSAY READOUT": "growth", "RESULT": 94}
{"MOLECULE": "OC1COC(OCc2ccccc2)C(O)C1O (stereo not given)", "ASSAY READOUT": "growth", "RESULT": 105}
{"MOLECULE": "Fc1ccc([I+]c2ccc(F)cc2)cc1", "ASSAY READOUT": "growth", "RESULT": 54.5}
{"MOLECULE": "N#CC(C#N)N=Nc1cc(Cl)ccc1Cl", "ASSAY READOUT": "growth", "RESULT": 103}
{"MOLECULE": "NC(=O)NCCCC(N)C(=O)O (stereo not given)", "ASSAY READOUT": "growth", "RESULT": 101}
{"MOLECULE": "NN1CCOC(c2ccccc2)C1 (stereo not given)", "ASSAY READOUT": "growth", "RESULT": 101}
{"MOLECULE": "CCCCCCCCCCCCCCCc1ccc(N)c(OC2OC(CO)C(O)C(O)C2O)c1 (stereo not given)", "ASSAY READOUT": "growth", "RESULT": 100}
{"MOLECULE": "O=C1OC(c2ccccc2)=N/C1=C\\c1ccccc1", "ASSAY READOUT": "growth", "RESULT": 108}
{"MOLECULE": "O=C(/C=C/c1ccccc1)c1ccccc1", "ASSAY READOUT": "growth", "RESULT": 33.3}
{"MOLECULE": "Cc1cc(-c2ccc(N=Nc3ccc4c(S(=O)(=O)O)cc(S(=O)(=O)O)c(N)c4c3O)c(C)c2)ccc1N=Nc1ccc2c(S(=O)(=O)O)cc(S(=O)(=O)O)c(N)c2c1O", "ASSAY READOUT": "growth", "RESULT": 94.7}
{"MOLECULE": "CC(=O)NCC(=O)c1ccc([N+](=O)[O-])cc1", "ASSAY READOUT": "growth", "RESULT": 103}
{"MOLECULE": "Nc1cc(N)c(N)cc1N", "ASSAY READOUT": "growth", "RESULT": 80.1}
